TARGET_ENTITY: human Nav1.7 channels stably expressed in HEK 293 cells (Homo sapiens, UniProt Q15858)
Construct: expressed in transfected cells
Sequence (Q15858 whole entry): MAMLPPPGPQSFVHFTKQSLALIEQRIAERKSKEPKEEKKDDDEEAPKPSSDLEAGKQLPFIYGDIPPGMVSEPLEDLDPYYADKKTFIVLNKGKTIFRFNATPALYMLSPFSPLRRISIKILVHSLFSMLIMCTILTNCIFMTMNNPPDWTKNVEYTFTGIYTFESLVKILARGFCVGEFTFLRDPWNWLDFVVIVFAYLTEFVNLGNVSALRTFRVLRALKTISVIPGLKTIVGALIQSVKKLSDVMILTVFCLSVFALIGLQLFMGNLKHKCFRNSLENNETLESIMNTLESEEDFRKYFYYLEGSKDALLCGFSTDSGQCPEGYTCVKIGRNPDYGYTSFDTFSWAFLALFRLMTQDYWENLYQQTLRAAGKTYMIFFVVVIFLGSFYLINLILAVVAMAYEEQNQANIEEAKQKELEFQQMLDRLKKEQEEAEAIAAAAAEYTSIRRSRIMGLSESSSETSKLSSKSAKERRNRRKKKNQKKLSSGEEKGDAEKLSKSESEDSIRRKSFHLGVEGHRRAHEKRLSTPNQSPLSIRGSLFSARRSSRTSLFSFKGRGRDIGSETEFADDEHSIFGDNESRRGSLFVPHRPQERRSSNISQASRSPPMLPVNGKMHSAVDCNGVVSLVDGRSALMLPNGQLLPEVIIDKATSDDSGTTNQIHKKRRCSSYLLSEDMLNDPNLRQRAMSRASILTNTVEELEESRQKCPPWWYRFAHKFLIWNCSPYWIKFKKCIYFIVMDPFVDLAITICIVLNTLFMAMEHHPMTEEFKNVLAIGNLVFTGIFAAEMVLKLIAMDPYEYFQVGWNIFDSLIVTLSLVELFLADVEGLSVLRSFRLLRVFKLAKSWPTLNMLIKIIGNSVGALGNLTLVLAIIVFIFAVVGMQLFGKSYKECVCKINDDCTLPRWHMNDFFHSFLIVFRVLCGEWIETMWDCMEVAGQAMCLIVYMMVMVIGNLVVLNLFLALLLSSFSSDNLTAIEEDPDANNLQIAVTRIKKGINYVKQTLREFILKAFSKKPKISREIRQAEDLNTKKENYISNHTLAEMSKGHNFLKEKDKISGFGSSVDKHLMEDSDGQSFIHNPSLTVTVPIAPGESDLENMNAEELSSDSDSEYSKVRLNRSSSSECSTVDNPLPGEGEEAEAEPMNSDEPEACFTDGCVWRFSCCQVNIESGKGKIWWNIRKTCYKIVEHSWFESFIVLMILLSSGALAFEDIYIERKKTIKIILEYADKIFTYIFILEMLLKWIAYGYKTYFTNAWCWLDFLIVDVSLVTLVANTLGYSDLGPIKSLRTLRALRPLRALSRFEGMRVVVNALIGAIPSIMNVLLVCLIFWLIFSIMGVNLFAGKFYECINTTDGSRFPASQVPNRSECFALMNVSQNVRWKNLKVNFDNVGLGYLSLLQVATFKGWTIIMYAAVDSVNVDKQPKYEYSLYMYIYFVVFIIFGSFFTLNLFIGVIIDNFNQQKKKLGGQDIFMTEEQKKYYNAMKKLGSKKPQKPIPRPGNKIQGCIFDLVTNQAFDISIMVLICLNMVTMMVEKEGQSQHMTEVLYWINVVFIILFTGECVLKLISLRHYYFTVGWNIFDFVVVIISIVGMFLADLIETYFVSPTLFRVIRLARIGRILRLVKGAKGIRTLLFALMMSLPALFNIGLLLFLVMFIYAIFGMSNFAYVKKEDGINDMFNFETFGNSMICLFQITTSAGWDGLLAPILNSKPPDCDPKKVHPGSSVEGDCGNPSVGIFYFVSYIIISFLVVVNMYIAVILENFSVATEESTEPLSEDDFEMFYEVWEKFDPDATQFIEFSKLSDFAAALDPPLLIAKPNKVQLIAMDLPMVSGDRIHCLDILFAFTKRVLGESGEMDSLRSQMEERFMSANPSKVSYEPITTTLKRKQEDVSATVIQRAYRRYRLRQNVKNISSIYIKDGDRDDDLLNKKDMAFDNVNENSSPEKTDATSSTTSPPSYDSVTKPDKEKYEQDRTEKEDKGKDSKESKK
ASSAY_OVERVIEW: PatchXpress 7000 automated patch-clamp, sodium current
Format: cell-based
CONDITION_DETAILS: 22° C., read-out: potency for the Nav 1.7 sodium ion channel (as measured by PatchXpress)
Response field label: string, one of True (IC50 strictly below 200 nM) or False.

[
  {
    "COMPOUND": "Cl.O=c1oc2cc(S(=O)(=O)Nc3nccs3)c(F)cc2n1Cc1cccc2c1CNCC2(F)F [Compound 44-5, hydrochloride]",
    "ASSIGNED_LABEL": "True"
  },
  {
    "COMPOUND": "CC(c1cccc(-c2ccnc(CO)c2)c1)n1c(=O)oc2cc(S(=O)(=O)Nc3ncns3)c(F)cc21 (stereo not shown) [Compound 29-3]",
    "ASSIGNED_LABEL": "False"
  },
  {
    "COMPOUND": "C[C@H](c1ccccc1C#CC1(O)CCCC1)n1c(=O)oc2cc(S(=O)(=O)Nc3ncns3)c(F)cc21 [Compound 17-3]",
    "ASSIGNED_LABEL": "True"
  },
  {
    "COMPOUND": "CC(c1ccccc1)n1c(=O)oc2cc(S(=O)(=O)Nc3ncns3)ccc21 (stereo not shown) [Compound 4-6]",
    "ASSIGNED_LABEL": "False"
  },
  {
    "COMPOUND": "O=c1oc2cc(S(=O)(=O)Nc3ncns3)c(F)cc2n1[C@@H]1C[C@@H](c2ccccc2)Oc2ccccc21 [Compound 39-15]",
    "ASSIGNED_LABEL": "True"
  },
  {
    "COMPOUND": "NC/C=C/c1ccccc1Cn1c(=O)oc2cc(S(=O)(=O)Nc3ncns3)c(F)cc21 [Compound 12-3]",
    "ASSIGNED_LABEL": "True"
  },
  {
    "COMPOUND": "CN1CCc2cccc(Cn3c(=O)oc4cc(S(=O)(=O)Nc5ncns5)ccc43)c2C1 [Compound 6-1]",
    "ASSIGNED_LABEL": "False"
  }
]

* * *

TARGET_ENTITY: human Nav1.7 channels stably expressed in HEK 293 cells (Homo sapiens, UniProt Q15858)
Construct: expressed in transfected cells
ASSAY_OVERVIEW: IonWorks Quattro automated patch-clamp, sodium current, inactivated state block
Format: cell-based
CONDITION_DETAILS: read-out: potency for the Nav 1.7 sodium ion channel (as measured by IonWorks)
pIC50: −log10 of the molar value.

[
  {
    "SMILES_STRING": "O=c1oc2cc(S(=O)(=O)Nc3ncns3)ccc2n1Cc1ccccc1Cl",
    "pIC50": 6.39
  },
  {
    "SMILES_STRING": "NCc1ccccc1Cn1c(=O)oc2cc(S(=O)(=O)Nc3ncns3)ccc21",
    "pIC50": 6.58
  },
  {
    "SMILES_STRING": "O=c1oc2cc(S(=O)(=O)Nc3ncns3)c(F)cc2n1Cc1cccc2c1CNCC2",
    "pIC50": 7.00
  },
  {
    "SMILES_STRING": "C[C@H](c1cccc2c1CNCC2)n1c(=O)oc2cc(S(=O)(=O)Nc3ncns3)c(F)cc21",
    "pIC50": 8.40
  }
]
